# Experimental conditions: in ethylbenzene, 318.15 K
Measured parameter: solubility (mole fraction)
Give the value as a plain number.

QUERY: Entry under review: "COc1cc(Cl)nc(N)n1" . Reported solubility (mole fraction)?
RESULT: 0.00462

* * *

# Experimental conditions: in methanol, 273.15 K
Measured parameter: solubility (mole fraction)
Give the value as a plain number.

QUERY: Entry under review: "COc1cc(Cl)nc(N)n1" . Reported solubility (mole fraction)?
RESULT: 0.00126

* * *

# Experimental conditions: in toluene, 318.15 K
Measured parameter: solubility (mole fraction)
Give the value as a plain number.

QUERY: Entry under review: "COc1cc(Cl)nc(N)n1" . Reported solubility (mole fraction)?
RESULT: 0.00573

Attribution: BigSolDB 2.1
